All figures here come from ChEMBL document CHEMBL1201862.

Test system: SNB-19
Test: NCI tumour cell line growth inhibition, 48 h
Active and inactive are the calls of the source. Cut-off read from the data, not from the text of the source: active = GI50 up to about 1.1 µM and inactive = higher.
readout-kind: GI50

Cc1cc2c(cc1Cl)Sc1nnc(C)n1S2(=O)=O; 23.5 µM (inactive)

Go through the items and report each one's GI50.
1. Cc1ccc2c(c1)NC(c1ccc(C(=O)O)cc1)c1cccn1-2 (stereo unspecified)
2. O=c1[nH]nc(-c2ccccc2)n1/N=C/c1cccnc1
3. NNC(=O)N/N=C1/C(=O)N(c2ccc(Cl)c(Cl)c2)C(=O)C(=O)C1c1nc2ccccc2o1 (stereo unspecified)
4. CCOC(=O)/C(=N/Nc1ccc(C)cc1)N1C(=S)N(C)N=C(C)C=C1S

["22.4 µM (inactive)", "> 100 µM (inactive)", "29.5 µM (inactive)", "69.8 µM (inactive)"]

Need GI50 for each of these compounds.
1. N=C(NCc1ccccc1)N/N=C\c1ccnc2ccccc12
2. O=C(NCCO)c1cc2c(cn1)[nH]c1ccccc12

["17.9 µM (inactive)", "> 100 µM (inactive)"]

List the reported GI50 of each compound below.
1. COc1cc(S(=O)(=O)N/N=C/C=C/c2ccccc2)c(OC)cc1NC(C)=O
2. O=C(/N=C(/Nc1ccccc1)SCS/C(=N\C(=O)c1ccco1)Nc1ccccc1)c1ccco1

> 100 µM (inactive)
24 µM (inactive)

// for each compound in input: emit GI50
1. NC(=S)N/N=C(/CC(=O)c1ccccc1)C(=O)Nc1ccc(Cl)c(Cl)c1
2. COC(=O)c1sc(C(=O)OC)c2c1C[S+]([O-])C2

91.2 µM (inactive)
> 100 µM (inactive)

====

Tested on: SK-MEL-5
Experiment: NCI tumour cell line growth inhibition, 48 h
Activity calls are given as the source filed them. Rule as the data show it: active = GI50 up to about 1.1 µM and inactive = higher.
Bench note: report the call from 1.0 for active, 0.0 for inactive

N#C[BH2-][n+]1ccc(C(=O)NNC(c2ccccc2)C(F)(F)F)cc1 (centres undefined); 0.0

Consider now this further compound.
What classification did `O=C(CCCN1CCC2(CC1)NC(=O)c1ccccc1O2)c1ccc(F)cc1` end up with in this test?
0.0

====

Test system: SR
Test: NCI tumour cell line growth inhibition, 48 h
The source made the active and inactive calls. No stated cut-off is given here; in the data, active = GI50 up to about 1.1 µM and inactive = higher.
Return exactly one item of yes (1) (active), no (0) (inactive)

# count of solved cases: 4
CN(C)CCNC(=O)c1cccc2c(NC(CCCNC(=N)N)C(=O)O)c3ccccc3nc12 (stereo not given); yes (1)
NC(=S)NN=C1Cc2ccccc2C1; no (0)
O=Cc1ccc2c(c1)CC1(C2)Cc2ccc(C=O)cc2C1; no (0)
COc1ccccc1NC(=O)C(CC(C(=O)Nc1ccccc1OC)/C(C)=N/Nc1ccc([N+](=O)[O-])cc1[N+](=O)[O-])/C(C)=N/Nc1ccc([N+](=O)[O-])cc1[N+](=O)[O-] (stereo not given); yes (1)

As a next step, examine the compound that follows.
Query: recorded result category for `O=C(CCCN1CCC2(CC1)NC(=O)c1ccccc1O2)c1ccc(F)cc1` in this test
no (0)

====

Exercise: state measured GI50 for each of the molecules provided.
System: MDA-N
Test: NCI tumour cell line growth inhibition, 48 h
Activity calls are given as the source filed them. Cut-off read from the data, not from the text of the source: active = GI50 up to about 1.1 µM and inactive = higher.

COC1(CC[C@@H](C)COC2OC(CO)C(O)C(O)C2O)OC2C[C@H]3[C@@H]4CC[C@H]5C[C@@H](OC6OC(CO)C(OC7OC(CO)C(O)C(O)C7O)C(O)C6OC6OC(C)C(O)C(O)C6O)[C@H](O)C[C@]5(C)[C@H]4CC[C@]3(C)C2[C@@H]1C (stereo partly specified); 2.19 µM (inactive)
O=c1[nH]nc(-c2ccccc2)n1/N=C/c1cccnc1; 34.9 µM (inactive)
Cn1c(=O)c2nc(CCS)[nH]c2n(C)c1=O; > 100 µM (inactive)
CCOC(=O)c1c(C)n(-c2ccc(Cl)cc2)c2c1cc(O)c1[nH]c3c(c12)CCCC3; 35.7 µM (inactive)
CCc1n[nH]c(=O)n1NC(=O)CCCC(=O)O; > 100 µM (inactive)
NC(=S)NS(=O)(=O)c1ccc(F)cc1; > 100 µM (inactive)
O=C(NCCNCCO)N/N=C/c1ccc([N+](=O)[O-])cc1; 61.4 µM (inactive)
O=C(O)CN(CC(=O)O)C1CCCCC1N(CC(=O)O)CC(=O)NCCN=C=S (stereo unspecified); > 100 µM (inactive)
COc1cc(S(=O)(=O)N/N=C/C=C/c2ccccc2)c(OC)cc1NC(C)=O; 78.9 µM (inactive)
CC1(CCCCO)C=CC(S(=O)(=O)c2ccccc2)CC1 (stereo unspecified); 3.42 µM (inactive)

Proceeding to the next molecule to report its GI50.
// lookup GI50 for `COc1ccc(/C=N/n2c(Cc3ccccc3)n[nH]c2=O)c(OC)c1`
> 100 µM (inactive)
